biological target: Autotaxin (Homo sapiens)
assay_readout: IC50 (nM)
Give just the numeric value; nM need not be written.

compound | units_of_measure | IC50
C[C@H](CCC(=O)O)[C@H]1CC[C@H]2[C@@H]3[C@@H](O)C[C@@H]4C[C@H](O)CC[C@]4(C)[C@H]3CC[C@]12C [URSODIOL] | nM | 2800

Find IC50 (Autotaxin (Homo sapiens)) for the entry `CCCCCCCCCCCCCC(=O)Nc1ccc(CP(=O)(O)O)cc1`
5.6
